Where do these numbers come from? They come from the supplement of paper PMC10567573.

B1: KLHDC10 (parent)
chain: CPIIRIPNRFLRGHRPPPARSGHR

Variants of: B1
Experiment: protein stability index of a GFP-peptide fusion (GPS, HEK-293T) (PSI 1-6); higher = more stable;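 further: lentivirally expressed fusions sorted by FACS into six bins by GFP to DsRed ratio, PSI derived from sequencing read proportions per bin multiplied by bin number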
Conditions: c terminus: a fixed tail appended
Readout: protein stability index
Give your answer as a number; write no unit.

> print(dat)
   variant.designation  experimental.value
1                 L11Q                1.35
2                  P7L                2.25

Turning to the following variant.
Challenge: Find the measured protein stability index of `R15N` and report it.
Response given: 2.3
